tested on: HEK-293T; experiment: Multiplex assay against HEK293T; assay type: toxicity, cell-based; details: human, 12 h, 1 µM, compound concentration 1 uM, replicate 2
Please go through the items and note down their Population Pyknosed Nuclei (%).

O=C1COc2nccc(-c3ccccc3F)c2CN1Cc1cc(C(F)(F)F)cc(C(F)(F)F)c1: 11%

Could I get Population Pyknosed Nuclei (%) for every one of these entries?
1. CN(C)c1ccnc2sc3c(=O)n(N4CCCCCC4)cnc3c12
2. CSc1ccccc1N1CCN(CCCCCC(=O)NC2CCCc3ccccc32)CC1.Cl (configuration not stated)
3. Cc1ccccc1C(=O)Nc1ccc(C(=O)N2CCCC(N(C)C)c3ccccc32)cc1.Cl (configuration not stated)
4. O=C(O)Cc1ccccc1Nc1c(Cl)cccc1Cl
5. COc1c(C)cc(NC(=O)c2nn(Cc3ccc(F)cc3)c3c2CN(C(=O)c2ccc[nH]2)C[C@]3(C)C(N)=O)cc1C
6. Cc1nc2ccc(Oc3ccc(F)cc3)cc2c(=O)n1C[C@H]1CCCN(C(C)C)C1.Cl

1. 12%
2. 19%
3. 14%
4. 13%
5. 17%
6. 24%
